Test system: PPARg:RXRa DBDmut IVT, anti-RXR (DBD mutation: RXRa K156A/R161A, NR concentration 270 nM, RXRa partner concentration 90 nM)
Experiment: PBM binding z-score (relative to random genomic background probes); higher = stronger binding; sequences stand for … in GC…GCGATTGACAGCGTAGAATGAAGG
Mark t for reported PBM binding z-score of 0.8 or greater; mark f for anything smaller.

TCAGACAGGTGAAGGTAATTCAGGTACGCAGTCG t
TAGCCTAGGTCAGATCGGGCTAGTATACGCTATA f
CCTACTGGGCCAAGGTGATTGATCAGTCAAAGCA t

[Q] Textbook exercise: given the entry ATAACAAGGTGATCGTGAGGTCGTTGATACTAAC , state whether its PBM binding z-score is greater than or equal to 0.8.
[A] t

[Q] How about TCTGCTAGGTCAGTTGGTTAGCTAACGAGCTGCC ?
[A] t

====

Tested on: PXR:RXRa (NR concentration 270 nM, RXRa partner concentration 90 nM)
Assay: PBM binding z-score (relative to random genomic background probes); higher = stronger binding; sequences stand for … in GC…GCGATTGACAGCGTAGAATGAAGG
Categories are assigned from the measured PBM binding z-score using these intervals: b0 = under 1, b1 = from 1 up to 4, b2 = 4 and over

Some entries whose results are on file:
TCATATTGGTAATACAGGTGAAAGTCGGCATCTA b0
ATATGTAGGTTATCGGGTGATTCAGTTTGCGCAT b1
ATATGTAGGTTAACGGTCATTCAGGTTGGTTCGC b1
TCTCGGGGGACACGAAGGTCAGAGCTTTCCAGAG b1
GGAACGAGGGCATTCGAGTTGATATCATGGCGAT b1

[Q] Which class does TGTGAAAGTTCAAAGGTAACGTAAGTATCCACAC fall in?
[A] b2

[Q] How about CCTCGGAGGACAACAGGAGGTCGGAGCTGCCAGA ?
[A] b0

[Q] How about TCATATAGGTAAAGGTGAAAGTTGAACGATATGA ?
[A] b1

[Q] How about ATCTGTAGGTTAGCTGGGGTCATTCAGACTAGGC ?
[A] b2

====

System: LXRa homodimer (NR concentration 270 nM)
Experiment: PBM binding z-score (relative to random genomic background probes); higher = stronger binding; sequences stand for … in GC…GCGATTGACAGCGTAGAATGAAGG
Mark y for reported PBM binding z-score of -0.03 or greater; mark n for anything smaller.

Some entries whose results are on file:
CCTAGCAGGCCAGGGCCACTCAAGCATTTCGCTT n
TCTGCTAGGTCAACGATGGTCAACTAATCTGCTA y
GCATATAGGTAATACAAAGTGAAAGTCCGATTGT n
CCGACTGGGGCAGAAAGGTCACCATACCATCCGG y
CGTCCACGGTCAATGCTAGGTCAGTGAAAGCATT y

[Q] Textbook exercise: given the entry AGAATGAGGTTATTCAGATCAGGGAATTGCGGTC , state whether its PBM binding z-score is greater than or equal to -0.03.
[A] y

[Q] How about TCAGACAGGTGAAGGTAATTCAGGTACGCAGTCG ?
[A] n

[Q] How about ACAGAGAGGTGAGTGAAGGTAACTCAGCTGGACG ?
[A] n

[Q] How about ATGGAAAGGTCGACGAGGTGAGTATACACCGTTT ?
[A] n

[Q] How about TCTATTAGTTGAAGGGCAACCCACGAGTCCGTTT ?
[A] y

[Q] How about ACAGACAGGTGAGTGAAGGTTACTCAGCTGGACG ?
[A] n

[Q] How about CCTATTAGTTGACCATAATGGCAACCGAAGCTCG ?
[A] y

[Q] How about TCTTGTAGATCAAGCAGGTTAAGTAAGCCTGAGT ?
[A] n

[Q] How about TCGAGTAGGTTAGTCGGGGCATTCCGCCAACATA ?
[A] n

[Q] How about ACTATTAGTTGACTTAGGGCAACCGCTACGACGC ?
[A] y

[Q] How about TGAATGAGGTTAAAGATGAGGGAACGTGGCGTCG ?
[A] y

====

Listing of entries alongside the reported PBM binding z-score.
System: LXRa homodimer (NR concentration 270 nM)
Assay: PBM binding z-score (relative to random genomic background probes); higher = stronger binding; sequences stand for … in GC…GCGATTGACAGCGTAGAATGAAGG
Could you keep your reply to the number by itself?

These solved cases illustrate the format of a correct answer.
TCATGTAGATCAAGCAGGTTAAGAAAGCCTGAGT -0.0467
GCTTACGGGTCAAGGGTTATAGCATGAATAGAAT -0.0628

[Q] Which measured PBM binding z-score belongs to CTACCAAGGTGTACAAGGTCGTTGATTACTATTC , tested on LXRa homodimer (NR concentration 270 nM)?
[A] 0.255

[Q] How about ATACCAAGGTGATCGTGAGGTAGTTGATACTAAC ?
[A] -0.314

[Q] How about CGCCCAAGGTCAAGGTCAGTGAAAGAGACTCGAA ?
[A] 1.02

====

Test system: LXRa:RXRa (NR concentration 270 nM, RXRa partner concentration 90 nM)
Test: PBM binding z-score (relative to random genomic background probes); higher = stronger binding; sequences stand for … in GC…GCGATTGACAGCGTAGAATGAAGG
VALUE KIND: PBM binding z-score
Could you keep your reply to the number by itself?

These solved cases illustrate the format of a correct answer.
ACAGACACGTGATGAAGGTAACTCAGGCTATCAT 0.0254
CAAACTAGATCAAAGGTCAAAGTCGAGCCAACCA 5.82
AGTCAAAGTTCACTACGTAACGTAAGATTCAGCT 4.81
CATACAGGGTCAGGTAGGCCAGAGTAGGGACGGC 2.92
TCTTATAGGTAAATGCTAGGTGAAAGTCCGATCT 1.6
CGTCCAGGGTCATAGGAGGTCAGTGAAGACAGAT 7.25
TAGCCTAAGTCAGATCGGGCCAGTATACGCTATA -0.914
TCTAGTTGGTCAAAGGGCACACACTCGAAATGCG 1.56

[Q] Any idea what its PBM binding z-score is? The sequence is GGAATGAGGGCAAAGTTGATAGCATCTGTCGACG
[A] 1.26

[Q] How about GCAGACAGGTGAAACGCAGGTAACTCCGGGTGGC ?
[A] 0.017

[Q] How about CGTCCAAGGTCAGCAGGTCAGTTAAAGCGACGTG ?
[A] 4.17

[Q] How about GCGACTCGGGCATCAGCAGGTTACCATAACTTAA ?
[A] -0.386

====

Tested on: PPARg homodimer (NR concentration 180 nM)
Assay: PBM binding z-score (relative to random genomic background probes); higher = stronger binding; sequences stand for … in GC…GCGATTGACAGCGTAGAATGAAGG
VALUE KIND: PBM binding z-score
Could you keep your reply to the number by itself?

These solved cases illustrate the format of a correct answer.
GCTATTAGTTTAAAGGGCAACCGAATGATTCTCG 1.43
TCGAGTAGGGTAGTCGGGGCATTCAGCCAACATA 0.299
TCTGCTAGGGCAACGATGGTCAGCTAATCTGCTA -1.1

[Q] Any idea what its PBM binding z-score is? The sequence is ACTCGGAGGACAAAGTTCAGAGCTACGCCAGTGA
[A] 1.27

[Q] How about CCTAGCAGGCCAATCTGGGTCACTCCAGGCTTGA ?
[A] 0.639

[Q] How about CAAACTAGGTCACCGGAAGGTTAAAGTCCGCATG ?
[A] 3.7

[Q] How about TCATATAGGTAAACAGGTGAAAGTTCGTAAGTTA ?
[A] 1.88

[Q] How about CAAACTAGGTCACATAGGTCAAAGTCCGTGCGTA ?
[A] 4.12

[Q] How about CCTAGCAGGCCAGGGTGACTCAAGCATTTCGCTT ?
[A] -0.646

[Q] How about TCTATTAGTTGAAGGGCAATCGACGAGTCCGTTT ?
[A] 0.916

[Q] How about CCTAATTGGTCAAGGTCACACACGCTATAGGTAC ?
[A] 3.47

[Q] How about CATACAGGGTCAGCTAGGCCAGAGTGGGGACGGC ?
[A] 1.44

[Q] How about ATCTCTAGGTAAAGATAGCTCAGTGAATGCAAAT ?
[A] 0.00125

[Q] How about CCTTACGGGTCACTGACAGGTGATAGCATTTGGA ?
[A] 2.47

[Q] How about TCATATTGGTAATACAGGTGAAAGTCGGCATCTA ?
[A] 1.69

[Q] How about ACTATTAGTGGACTTAGGGCAACCGATACGACGC ?
[A] -0.531
